target: Raw264.7 p110 γ (Mus musculus, UniProt Q9JHG7); construct: reduction of phospho-AKT in stimulated RAW 264.7 cells; endogenous in cells; experiment: Raw264.7 p110 γ cellular assay (phospho-AKT); details: serum-starved RAW264.7 cells stimulated with C5a
Sequence (Q9JHG7 whole entry): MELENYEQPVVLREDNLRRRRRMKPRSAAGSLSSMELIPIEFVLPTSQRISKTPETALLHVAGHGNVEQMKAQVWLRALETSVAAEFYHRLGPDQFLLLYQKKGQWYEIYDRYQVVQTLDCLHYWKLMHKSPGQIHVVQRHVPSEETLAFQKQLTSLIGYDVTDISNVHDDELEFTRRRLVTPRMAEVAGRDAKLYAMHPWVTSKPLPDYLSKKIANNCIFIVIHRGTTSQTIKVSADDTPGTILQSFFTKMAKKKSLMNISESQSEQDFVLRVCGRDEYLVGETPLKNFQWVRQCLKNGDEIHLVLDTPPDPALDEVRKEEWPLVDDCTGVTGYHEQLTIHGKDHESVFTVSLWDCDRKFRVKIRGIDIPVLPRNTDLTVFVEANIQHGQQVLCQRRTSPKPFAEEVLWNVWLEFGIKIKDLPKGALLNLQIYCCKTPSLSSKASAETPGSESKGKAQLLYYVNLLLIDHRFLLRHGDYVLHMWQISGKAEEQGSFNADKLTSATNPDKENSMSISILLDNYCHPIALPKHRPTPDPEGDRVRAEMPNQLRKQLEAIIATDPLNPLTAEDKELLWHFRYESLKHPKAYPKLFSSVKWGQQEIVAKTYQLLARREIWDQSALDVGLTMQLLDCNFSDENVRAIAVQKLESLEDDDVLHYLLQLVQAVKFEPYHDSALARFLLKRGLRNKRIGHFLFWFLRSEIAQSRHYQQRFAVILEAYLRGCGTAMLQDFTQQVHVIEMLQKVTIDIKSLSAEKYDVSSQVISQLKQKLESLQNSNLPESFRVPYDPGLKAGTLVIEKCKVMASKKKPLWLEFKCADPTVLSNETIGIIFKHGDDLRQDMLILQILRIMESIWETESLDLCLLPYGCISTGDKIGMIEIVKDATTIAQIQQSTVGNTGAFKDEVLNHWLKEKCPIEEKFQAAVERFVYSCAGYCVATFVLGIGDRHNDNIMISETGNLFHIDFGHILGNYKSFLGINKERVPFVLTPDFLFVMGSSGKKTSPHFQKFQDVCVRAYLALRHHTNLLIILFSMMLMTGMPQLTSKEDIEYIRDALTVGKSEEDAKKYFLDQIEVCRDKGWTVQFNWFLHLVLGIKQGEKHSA
MEASUREMENT_LABEL: IC50

Worked cases, answers included:
MOLECULE: CC(C)NS(=O)(=O)c1cccc(-c2cnc(N)c(C(=O)N[C@@H](C)c3cc4cccc(Cl)c4c(=O)n3-c3ccccc3)n2)c1
IC50: < 100 nM
//
MOLECULE: CC(C)n1c([C@H](C)NC(=O)c2c(N)nn3cccnc23)cc2cccc(Cl)c2c1=O
IC50: < 100 nM
//
MOLECULE: C[C@H](NC(=O)c1c(N)nn2cccnc12)c1cc2cccc(-c3cncs3)c2c(=O)n1-c1ccccc1
IC50: < 100 nM
//
MOLECULE: C[C@H](NC(=O)c1nccnc1N)c1cc2cccc(-c3cccnc3)c2c(=O)n1-c1ccccc1
IC50: 1000 to 10000 nM
//
MOLECULE: C[C@H](NC(=O)c1nc(-c2cscn2)cnc1N)c1cc2cccc(Cl)c2c(=O)n1-c1ccccc1
IC50: < 100 nM

Prompt: Please look up its IC50: `C[C@H](NC(=O)c1c(N)nn2cccnc12)c1cc2cccc(C#CCNS(C)(=O)=O)c2c(=O)n1-c1ccccc1`
Completion: < 100 nM

Prompt: And what about the molecule `C[C@H](NC(=O)c1c(N)nn2cccnc12)c1cc2cccc(-c3ccccc3)c2c(=O)n1-c1ccccc1` ?
Completion: < 100 nM

Prompt: Would you kindly repeat that for `CC(=O)Nc1cccc(-c2cccc3cc([C@H](C)NC(=O)c4c(N)nn5cccnc45)n(-c4ccccc4)c(=O)c23)c1` ?
Completion: 100 to 1000 nM

Prompt: Follow-up item: `Cc1cnc(C(=O)N[C@@H](C)c2cc3cccc(C(F)(F)F)c3c(=O)n2-c2ccccc2)c(N)n1`
Completion: 100 to 1000 nM

Prompt: Next: COc1cc(-c2cccc3cc(C(C)NC(=O)c4c(N)nn5cccnc45)c(-c4ccccc4)nc23)ccn1 (centres unmarked)
Completion: < 100 nM

Prompt: Same question, `C[C@H](NC(=O)c1c(N)nn2ccc(-c3cccc(S(C)(=O)=O)c3)nc12)c1cc2cccc(Cl)c2c(=O)n1-c1ccccc1` this time
Completion: < 100 nM

Prompt: // next record `COc1ccc(-c2cccc3cc([C@H](C)NC(=O)c4c(N)nn5cccnc45)n(-c4ccccc4)c(=O)c23)cn1`
Completion: < 100 nM

Prompt: What do you have for `C[C@H](NC(=O)c1nc(C#N)cnc1N)c1cc2cccc(Cl)c2c(=O)n1-c1ccccc1` ?
Completion: 100 to 1000 nM

Prompt: Then what about the molecule `C[C@H](NC(=O)c1c(N)nn2cccnc12)c1cc2cccc(-c3cccnc3)c2c(=O)n1-c1ccccc1` ?
Completion: < 100 nM
